Molecular target: HpNikR I127A (Helicobacter pylori G27, UniProt A1YSQ9 1-148, I127A)
Test: fluorescence anisotropy; apo (no Ni); FA: 5 nM DNA, 20 mM Tris pH 7.6, 100 mM NaCl, 3 mM MgSO4, temperature not stated (Ni loading 1.2 eq NiSO4 per monomer at RT). EMSA: 20 mM Tris pH 7.5, 100 mM KCl, 3 mM MgCl2, 0.1% IGEPAL, 5% glycerol, 0.1 mg/ml herring sperm DNA, RT; gel with 800 uM NiSO4 at 4 C
Conditions: protein: recombinant; tags: none stated; chain copies: 4; label: fluorescein on internal thymine (T14 of strand 1); blunt
ASSAY_METRIC: pKd
// scale note: pKd = -log10(conc_M); give the bare number

{"BINDER": "ureA-perf promoter 32 bp (dsDNA) DNA 1: ATATATTATTAATTCATTTTAAATAATAATTA DNA 2: TAATTATTATTTAAAATGAATTAATAATATAT", "REPORTED_VALUE": 5.40}

Please examine the following record next.
Fill in the blank: the reported pKd of ureA promoter 32 bp (FA) (dsDNA) DNA 1: ATATAACACTAATTCATTTTAAATAATAATTA DNA 2: TAATTATTATTTAAAATGAATTAGTGTTATAT is ____.
5.40
